tested_target: Gamma-aminobutyric acid receptor subunit alpha-1 (Rattus norvegicus); also: assay procedure not described here
Sequence (P62813 whole entry): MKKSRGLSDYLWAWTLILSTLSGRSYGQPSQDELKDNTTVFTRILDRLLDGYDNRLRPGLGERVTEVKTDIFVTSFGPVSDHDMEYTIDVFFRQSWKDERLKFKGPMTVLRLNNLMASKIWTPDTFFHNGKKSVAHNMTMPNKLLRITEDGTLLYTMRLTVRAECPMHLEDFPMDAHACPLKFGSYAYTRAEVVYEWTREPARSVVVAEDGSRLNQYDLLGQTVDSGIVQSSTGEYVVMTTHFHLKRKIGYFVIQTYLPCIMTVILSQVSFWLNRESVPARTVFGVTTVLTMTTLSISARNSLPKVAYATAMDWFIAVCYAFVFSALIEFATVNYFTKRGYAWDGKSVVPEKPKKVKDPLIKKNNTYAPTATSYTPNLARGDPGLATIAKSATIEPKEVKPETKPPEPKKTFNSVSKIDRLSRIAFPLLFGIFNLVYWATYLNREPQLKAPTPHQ
Type: functional
outcome_measure: AC50

Query: Report AC50, nothing else, for this compound: CC(=O)OCC(=O)[C@@]12OC3(CCCC3)O[C@@H]1C[C@H]1[C@@H]3CCC4=CC(=O)C=C[C@]4(C)[C@@]3(F)[C@@H](O)C[C@@]12C [AMCINONIDE]
Response: > 10 µM

Others:
Query: Report AC50, nothing else, for this compound: CC(=O)O[C@@]12CO[C@@H]1C[C@H](O)[C@@]1(C)C(=O)[C@H](O)C3=C(C)[C@@H](OC(=O)[C@H](O)[C@@H](NC(=O)OC(C)(C)C)c4ccccc4)C[C@@](O)([C@@H](OC(=O)c4ccccc4)[C@H]21)C3(C)C [DOCETAXEL ANHYDROUS]
Response: > 30 µM

Query: Report AC50, nothing else, for this compound: CN1CC(=O)N2[C@H](c3ccc4c(c3)OCO4)c3[nH]c4ccccc4c3C[C@@H]2C1=O
Response: > 10 µM

This collection of values is drawn from ChEMBL document CHEMBL5291721.
